Value source: patent US20260200926A1

Listed here: items and their measured EC50.
- target-desc: Human TREM2 (Homo sapiens, UniProt Q9NZC2)
- Construct: expressed in transfected cells
- Sequence (Q9NZC2 19-230): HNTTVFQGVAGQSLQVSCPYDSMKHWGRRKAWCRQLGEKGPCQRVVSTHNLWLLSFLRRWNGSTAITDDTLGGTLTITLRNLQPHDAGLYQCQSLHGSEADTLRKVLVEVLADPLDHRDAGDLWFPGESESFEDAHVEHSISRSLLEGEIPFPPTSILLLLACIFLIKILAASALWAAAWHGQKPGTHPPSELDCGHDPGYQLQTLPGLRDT
- Sequence (O43914 22-113 partner): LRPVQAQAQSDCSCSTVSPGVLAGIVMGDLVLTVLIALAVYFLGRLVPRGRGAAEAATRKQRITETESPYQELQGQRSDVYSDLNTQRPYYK
- assay-procedure: Human TREM2 activity: cellular phosphorylation of Syk (AlphaLISA SureFire Ultra p-SYK) in HEK293/DAP12+TREM2 stable cell line
- Format: cell-based
- condition-context: phospho-Syk AlphaLISA signal, HEK293/DAP12+TREM2 cells; concentration giving 50% of maximal response; read-out: EC50

{"columns": ["molecule", "EC50"],
 "data": [
  ["Cc1nc2c(-c3ccc(Cl)cc3F)nc(N3C[C@H](c4cnn(C)c4)OC(C)(C)C3)nc2c(=O)n1C (single isomer, unassigned) [Example 89B]", "10 to 100 nM"],
  ["Cc1cc([C@@H]2CN(c3cc4c(=O)n(C)c(C)nc4c(-c4ccc(C(F)(F)F)nc4)n3)C[C@H](C)O2)ccn1 (single isomer, unassigned) [Example 199A]", "10 to 100 nM"],
  ["Cc1nc2c(-c3ccc(C(F)(F)F)cc3F)nc(N3C[C@H](c4cnn(C)c4)OC4(CCC4)C3)cc2c(=O)n1C (single isomer, unassigned) [Example 143B]", "100 to 1000 nM"],
  ["Cc1nc2c(-c3ccc(Cl)cc3F)nc(N3CCOC(c4cc[nH]n4)C3)nc2c(=O)n1C (centres unmarked) [Example 47]", "100 to 1000 nM"],
  ["Cc1nc2c(-c3ccc(Cl)cc3F)nc(N3CC(c4cnn(C)c4)OC4(CCC4)C3)nc2c(=O)n1C (centres unmarked) [Example 90]", "1 to 10 nM"]
]}

The molecule Cc1nc2c(-c3ccc(C(F)(F)F)cc3F)nc(N3C[C@@H](c4cnn(C)c4)OC(C)(C)C3)nc2c(=O)n1C (single isomer, unassigned) [Example 100A] , tested on Human TREM2 (Homo sapiens, UniProt Q9NZC2), showed EC50 of 10 to 100 nM

The molecule Cc1nc2c(-c3ccc(Cl)cc3F)cc(N3C[C@H](c4cnn(C)c4)OC(C)(C)C3)nc2c(=O)n1C (single isomer, unassigned) [Example 142B] , tested on Human TREM2 (Homo sapiens, UniProt Q9NZC2), showed EC50 of 10 to 100 nM

The molecule Cc1nc2c(-c3cc(F)c(F)cc3F)nc(N3CCO[C@H](c4cnn(C5CC5)c4)C3)cc2c(=O)n1C (single isomer, unassigned) [Example 133A] , tested on Human TREM2 (Homo sapiens, UniProt Q9NZC2), showed EC50 of 10 to 100 nM

The molecule Cc1nc2c(-c3ccc(Cl)cc3F)nc(N3CCC(F)(F)C(c4cnn(C)c4)C3)nc2c(=O)n1C (centres unmarked) [Example 13] , tested on Human TREM2 (Homo sapiens, UniProt Q9NZC2), showed EC50 of 1 to 10 nM

The molecule Cc1nc2c(-c3ccc(Cl)cc3F)nc(N3C[C@@H](c4cnn(C)c4)OC4(CC4)C3)nc2c(=O)n1C (single isomer, unassigned) [Example 108A] , tested on Human TREM2 (Homo sapiens, UniProt Q9NZC2), showed EC50 of 1 to 10 nM
